Data provenance is the supplement of paper PMC7877785.

- PROTOCOL_SUMMARY: self-splicing fitness, log relative to wild type (ln ratio); higher = more splicing; Tetrahymena group I intron in knt gene, E. coli kanamycin selection, DiMSum; sequences stand for … in CUCUCU…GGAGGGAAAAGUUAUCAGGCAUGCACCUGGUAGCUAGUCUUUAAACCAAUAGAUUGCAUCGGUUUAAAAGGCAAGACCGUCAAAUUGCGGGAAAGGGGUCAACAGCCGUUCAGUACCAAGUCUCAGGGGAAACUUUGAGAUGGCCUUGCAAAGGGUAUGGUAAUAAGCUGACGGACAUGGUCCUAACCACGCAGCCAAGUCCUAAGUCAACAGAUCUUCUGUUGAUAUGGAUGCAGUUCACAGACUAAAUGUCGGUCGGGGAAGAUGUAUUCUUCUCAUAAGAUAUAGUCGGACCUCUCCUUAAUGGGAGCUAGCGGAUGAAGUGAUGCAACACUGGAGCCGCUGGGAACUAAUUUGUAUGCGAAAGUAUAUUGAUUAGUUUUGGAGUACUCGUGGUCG;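 note: selection with 25 µg/mL kanamycin versus none on LB agar overnight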
- CONDITION_DETAILS: 30 °C
Tag: met if measured self-splicing fitness (ln) is not below -2, not met if it is.

Lookup: Given the entry AACCAGCAAUAUUACGCGCC , answer whether its self-splicing fitness (ln) meets or surpasses -2.
Found: met

Further cases:
Lookup: # check: self-splicing fitness (ln) of AGAGAGCAAUAUUACGCAGA is greater than or equal to -2
Found: met

Lookup: Confirm if self-splicing fitness (ln) reported for the sequence UGAAAGCAAUAUUACGCUAA is -2 or above.
Found: met

Lookup: Has UUCGAGCAAUAUUACGGAUU a recorded self-splicing fitness (ln) greater than or equal to -2?
Found: not met

Lookup: Does AAUUAGCAAUAUUACGGACG have a reported self-splicing fitness (ln) of at least -2?
Found: met

Lookup: Reported self-splicing fitness (ln) reaches at least -2 for CUAAAGCAAUAUUACGUUGC ?
Found: not met

Lookup: # check: self-splicing fitness (ln) of CCCGAGCAAUAUUACGGCGG is greater than or equal to -2
Found: not met

Lookup: Could you tell me if the measured self-splicing fitness (ln) of CAUUAGCAAUAUUACGAAAG reaches -2 or more?
Found: met

Lookup: API: above_or_equal(metric=self-splicing fitness (ln), cutoff=-2) for item AGCGAGCAAUAUUACGCCUC
Found: met
